# Tested on: blackgrass (Alopecurus myosuroides)
# Assay summary: Test C postemergence, blackgrass
# Assay type: in vivo
# Condition description: 125 g ai/ha Postemergence; 0 is no effect, 100 is complete control
Value type: Plant response rating (0 to 100 scale), Blackgrass
Number, no unit, nothing else.

In: Return reported Plant response rating (0 to 100 scale), Blackgrass; argument: COC(=O)N(c1cc(N2CCC(OC3CC3)C2=O)c(C)cc1C)S(=O)(=O)C(F)(F)F (stereo not shown)
Out: 0

In: Return reported Plant response rating (0 to 100 scale), Blackgrass; argument: Cc1cc(Cl)c(N(COC(=O)C(C)(C)C)S(=O)(=O)C(F)(F)F)cc1N1CCC(OC2CC2)C1=O (stereo not shown)
Out: 60

In: Return reported Plant response rating (0 to 100 scale), Blackgrass; argument: Cc1cc(C)c(N2CCC(OC3CC3)C2=O)cc1NS(=O)(=O)C(F)(F)F (single isomer, unassigned) [Compound 29]
Out: 70

In: Return reported Plant response rating (0 to 100 scale), Blackgrass; argument: CC(=O)N(c1cc(N2CCC(OC3CC3)C2=O)c(C)cc1Cl)S(=O)(=O)C(F)(F)F (stereo not shown)
Out: 70

----------
# Tested on: galium (catchweed bedstraw, Galium aparine)
# Assay summary: Test C postemergence, galium
# Type: in vivo
# Condition description: 31 g ai/ha Postemergence; visual injury, 0 to 100 scale (0 no effect, 100 complete control)
Please respond with Fulfilled when measured Galium plant response rating is strictly beneath 90, and with Not fulfilled in all other cases.

[
  {
    "Molecule": "Cc1c(NS(=O)(=O)C(F)(F)F)cc(N2CCC(OCC3CC3)C2=O)c(C)c1F (stereo not shown) [Compound 63]",
    "Class assignment": "Not fulfilled"
  }
]

In: Lab note: confirm whether the reported Galium plant response rating for this molecule is below 90, equality not counting. molecule: Cc1cc(C)c(N2CCC(OCC3CCCO3)C2=O)cc1NS(=O)(=O)C(F)(F)F (stereo not shown) [Compound 42]
Out: Fulfilled

----------
# Test system: foxtail, giant (giant foxtail, Setaria faberi)
# Assay summary: Test A postemergence, giant foxtail
# Assay type: in vivo
# Condition description: post-emergence, 240 h, 31 g ai/ha, 0 to 100 scale, 10 days, read-out: Plant response rating, Foxtail, Giant
Please respond with y when measured pest or weed control at 31 g/ha is strictly beneath 30%, and with n in all other cases.

Here are 5 molecules together with their reported answers.
[
  {
    "Molecule": "Cc1cc(C)c(N(COC(=O)C(C)(C)C)S(=O)(=O)C(F)(F)F)cc1N1CCC(OC2CCCC2)C1=O (centres unmarked) [Compound 5]",
    "Class assignment": "y"
  },
  {
    "Molecule": "Cc1cc(C)c(N(COC(=O)C(C)(C)C)S(=O)(=O)C(F)(F)F)cc1N1CCC(OC2CC2)C1=O (centres unmarked) [Compound 7]",
    "Class assignment": "n"
  },
  {
    "Molecule": "Cc1cc(C)c(N2CCC(OC3CCCC3)C2=O)cc1NS(=O)(=O)C(F)(F)F (centres unmarked) [Compound 6]",
    "Class assignment": "y"
  },
  {
    "Molecule": "Cc1cc(C)c(N2CCC(OC3CCC3)C2=O)cc1NS(=O)(=O)C(F)(F)F (centres unmarked) [Compound 4]",
    "Class assignment": "n"
  },
  {
    "Molecule": "C#CCOC1CCN(c2cc(NS(=O)(=O)C(F)(F)F)c(C)cc2C)C1=O (centres unmarked) [Compound 1]",
    "Class assignment": "n"
  }
]

Okay, next one:
In: Lab note: confirm whether the reported pest or weed control at 31 g/ha for this molecule is below 30%, equality not counting. molecule: Cc1cc(C)c(N2CCC(OC3CC3)C2=O)cc1NS(=O)(=O)C(F)(F)F (centres unmarked) [Compound 3]
Out: n

----------
# Tested on: foxtail, giant (giant foxtail, Setaria faberi)
# Assay summary: Test C preemergence, giant foxtail
# Assay type: in vivo
# Condition description: 125 g ai/ha Preemergence; 0 is no effect, 100 is complete control
Here, each record is paired with measured Plant response rating (0 to 100 scale), Foxtail, Giant data.
Number, no unit, nothing else.

Worked set:
[
  {
    "Compound": "Cc1c(N2CCC(OC3CC3)C2=O)cc(N(COC(=O)C(C)(C)C)S(=O)(=O)C(F)(F)F)c(C)c1F (stereo not shown)",
    "Readout number": 90
  },
  {
    "Compound": "Cc1c(NS(=O)(=O)C(F)(F)F)cc(N2CCC(OC3CCC3)C2=O)c(C)c1C (stereo not shown)",
    "Readout number": 100
  }
]

In: Return reported Plant response rating (0 to 100 scale), Foxtail, Giant; argument: Cc1cc(C)c(N2CCC(O)C2=O)cc1NS(=O)(=O)C(F)(F)F (stereo not shown)
Out: 100

In: Return reported Plant response rating (0 to 100 scale), Foxtail, Giant; argument: Cc1cc(C)c(N2CCC(OCc3ccccc3)C2=O)cc1NS(=O)(=O)C(F)(F)F (stereo not shown)
Out: 100

----------
# Tested on: wheat (Triticum aestivum)
# Assay summary: Test C preemergence, wheat
# Type: in vivo
# Condition description: 31 g ai/ha Preemergence; 0 is no effect, 100 is complete control
Value type: Plant response rating (0 to 100 scale), Wheat

Worked set:
[
  {
    "Compound": "Cc1cc(C)c(N2CCC(OCc3ccccc3)C2=O)cc1NS(=O)(=O)C(F)(F)F (stereo not shown)",
    "Result": 30
  },
  {
    "Compound": "C=C(C)COC1CCN(c2cc(NS(=O)(=O)C(F)(F)F)c(C)cc2C)C1=O (stereo not shown)",
    "Result": 40
  },
  {
    "Compound": "C#CCO/N=C1\\CCN(c2cc(NS(=O)(=O)C(F)(F)F)c(C)cc2C)C1=O",
    "Result": 90
  }
]

Query compound follows.
In: Return reported Plant response rating (0 to 100 scale), Wheat; argument: Cc1c(N2CCCC(OC3CCC3)C2=O)cc(N(COC(=O)C(C)(C)C)S(=O)(=O)C(F)(F)F)c(C)c1F (stereo not shown)
Out: 0

----------
# Tested on: blackgrass (Alopecurus myosuroides)
# Assay summary: Test C postemergence, blackgrass
# Assay type: in vivo
# Condition description: 125 g ai/ha Postemergence; 0 is no effect, 100 is complete control
Value type: Plant response rating (0 to 100 scale), Blackgrass
Number, no unit, nothing else.

Worked set:
[
  {
    "Molecule": "Cc1c(N2CCCC(OC3CC3)C2=O)cc(N(COC(=O)C(C)(C)C)S(=O)(=O)C(F)(F)F)c(C)c1F (centres unmarked)",
    "Measured target": "blackgrass (Alopecurus myosuroides)",
    "Readout number": 60
  },
  {
    "Molecule": "Cc1cc(C)c(N2CCC(OC3CC3)C2=O)cc1NS(=O)(=O)C(F)(F)F (single isomer, unassigned) [Compound 30]",
    "Measured target": "blackgrass (Alopecurus myosuroides)",
    "Readout number": 90
  },
  {
    "Molecule": "Cc1cc(C)c(N2CCC(OCC3CC3)C2=O)cc1NS(=O)(=O)C(F)(F)F (centres unmarked)",
    "Measured target": "blackgrass (Alopecurus myosuroides)",
    "Readout number": 90
  },
  {
    "Molecule": "COC(=O)N(c1cc(N2CCC(OC3CC3)C2=O)c(C)cc1Cl)S(=O)(=O)C(F)(F)F (centres unmarked)",
    "Measured target": "blackgrass (Alopecurus myosuroides)",
    "Readout number": 60
  },
  {
    "Molecule": "Cc1c(NS(=O)(=O)C(F)(F)F)cc(N2CCCC(OC3CC3)C2=O)c(C)c1F (centres unmarked)",
    "Measured target": "blackgrass (Alopecurus myosuroides)",
    "Readout number": 60
  }
]

In: Missing value: Plant response rating (0 to 100 scale), Blackgrass, blackgrass (Alopecurus myosuroides), entry Cc1cc(C)c(N(C(=O)OCC(C)C)S(=O)(=O)C(F)(F)F)cc1N1CCC(OC2CC2)C1=O (centres unmarked) . Fill in?
Out: 80

In: Missing value: Plant response rating (0 to 100 scale), Blackgrass, blackgrass (Alopecurus myosuroides), entry Cc1c(NS(=O)(=O)C(F)(F)F)cc(N2CCC(OC3CCC3)C2=O)c(C)c1F (centres unmarked) . Fill in?
Out: 90

In: Missing value: Plant response rating (0 to 100 scale), Blackgrass, blackgrass (Alopecurus myosuroides), entry `CO/N=C1\CCN(c2cc(NS(=O)(=O)C(F)(F)F)c(C)cc2C)C1=O` . Fill in?
Out: 90

----------
Here, each record is paired with measured Plant response rating, Pigweed, Palmer data.
# Test system: pigweed, palmer (palmer amaranth, Amaranthus palmeri)
# Assay summary: Test A preemergence, palmer amaranth
# Format: in vivo
# Condition description: 31 g ai/ha, 0 to 100 scale, 10 days
Number, no unit, nothing else.

Worked set:
[
  {
    "Compound": "Cc1cc(C)c(N2CCC(OC3CCC3)C2=O)cc1NS(=O)(=O)C(F)(F)F (stereo not drawn)",
    "Plant response rating, Pigweed, Palmer": 100
  },
  {
    "Compound": "Cc1cc(C)c(N(COC(=O)C(C)(C)C)S(=O)(=O)C(F)(F)F)cc1N1CCC(OC2CCCC2)C1=O (stereo not drawn)",
    "Plant response rating, Pigweed, Palmer": 10
  },
  {
    "Compound": "Cc1cc(C)c(N2CCC(OC3CC3)C2=O)cc1NS(=O)(=O)C(F)(F)F (stereo not drawn)",
    "Plant response rating, Pigweed, Palmer": 100
  }
]

In: Return reported Plant response rating, Pigweed, Palmer; argument: Cc1cc(C)c(N2CCC(OC3CCCC3)C2=O)cc1NS(=O)(=O)C(F)(F)F (stereo not drawn)
Out: 70

In: Return reported Plant response rating, Pigweed, Palmer; argument: Cc1cc(C)c(N(COC(=O)C(C)(C)C)S(=O)(=O)C(F)(F)F)cc1N1CCC(OC2CC2)C1=O (stereo not drawn)
Out: 50

In: Return reported Plant response rating, Pigweed, Palmer; argument: Cc1cc(C)c(N(COC(=O)C(C)(C)C)S(=O)(=O)C(F)(F)F)cc1N1CCC(OC2CCC2)C1=O (stereo not drawn)
Out: 30

Reference source for all entries: patent US20240158348A1
